- Tested on: BT-549 breast
- Assay: NCI-60 one-dose screen, 48 h
- Condition Label: 10 µM unless noted
This is part of a sample that, as a whole, favours compounds with a hit. Of some 83,000 tested, about 20% had one in any assay. Active and inactive are the calls of the source. How the source made its calls: active means growth percent below 10; inactive means the rest.
Can you answer with just one of these options? Yes for active, No for inactive

Would you please look over these solved cases?
O=C(Nc1nc2ccccc2s1)c1ccc(F)cc1    No
O=C(N(c1ccccc1)c1ccccc1)n1cc(I)c2nc(Cl)nc(Cl)c21    No

Kindly provide the recorded test outcome for the following molecule: O=c1c2cnn(-c3ccccc3)c2n2c(CN3CCOCC3)nnc2n1-c1ccccc1
No

Could you please tell me the result logged for CCCCCC(/C=N\NC(=S)N/N=C/C(=C/c1ccccc1)CCCCC)=C\c1ccccc1 in this assay?
No

How did this test come out for CC1OC(n2c3ccccc3c3c4c(c5c6ccccc6[nH]c5c32)C(=O)N(CCN2CCCC2)C4=O)CC(O)C1O (configuration not stated) ?
No

Kindly provide the recorded test outcome for the following molecule: O=C1/C=C/[C@@H](O)[C@@H]2C[C@@H](O)C[C@H]2/C=C/CCC[C@H](CCc2ccccc2)O1
Yes

Could you kindly confirm the outcome this assay logged for C#CCNC(=O)[C@H](CC)[C@H]1CC[C@H](C)[C@H]([C@@H](C)[C@H](O)[C@H](C)C(=O)[C@H](CC)C2O[C@]3(C=CC(=O)[C@]4(CC[C@@](C)([C@H]5CC[C@](O)(CC)[C@H](C)O5)O4)O3)[C@H](C)C[C@@H]2C)O1 (some centres not stated) ?
No

Query: recorded result category for O=C(OC(CO)C(=O)NC12CC3CC(CC(C3)C1)C2)c1ccc(Cl)cc1 (configuration not stated) in this test
No

Call for entry COC(=O)CC[C@H](C)[C@H]1CC[C@H]2[C@@H]3CC[C@@H]4CC5(CC[C@]4(C)[C@H]3CC(=O)[C@]12C)Nc1ccccc1NC5=NC(C)(C)C (some centres not stated) :
No

Please share the test call associated with Cc1c[n+](Cc2ccc3ccccc3c2)cn1Cc1ccc2ccccc2c1 .
Yes

What classification did COc1ccc(C(=O)/C=C/c2c(C(F)(F)F)nc3ccccn23)cc1OC end up with in this test?
Yes

I would be grateful if you could indicate the recorded call for COCCOc1cc2ncnc(N3CCN(c4cc(S(C)(=O)=O)c(C)cc4Cl)CC3)c2cc1OCCOC .
No

----------
- Tested on: IGROV1 ovarian
- Assay: NCI-60 one-dose screen, 48 h
- Condition Label: 10 µM unless noted
- Procedure: Growth inhibition of the IGROV1 human tumor cell line is measured as a screen for anti-cancer activity. Cells are grown in 96 well plates and exposed to the test compound for 48 hours. Compounds are tested at a single concentration, which is 10^-5 M for most compounds. The reported endpoint is percent growth (GI% or GIPRCNT), where numbers from 0 - 100% represent growth inhibition, and numbers from -100% - 0 represent cell death. For example, a value of 40 represents 60% growth inhibition. […]
Compounds without any hit were thinned out: in the full panel of roughly 83,000, 20% have a hit. Active and inactive are the calls of the source. How the source made its calls: active means growth percent below 10; inactive means the rest.
Outcomes you can answer with include only these: YES for active, NO for inactive

C=C1C(=O)O[C@H]2[C@H]1CC/C(COC(=O)/C=C\C(=O)NCc1ccc(Cn3c(=O)sn(CCI)c3=O)cc1)=C\CC[C@@]1(C)O[C@@H]21    YES
O=C(NCCNc1nccc(Nc2ccc(S(=O)(=O)Nc3ccccn3)cc2)n1)c1cccc([N+](=O)[O-])c1    NO

Outcome? CC1OC(n2c3ccccc3c3c4c(c5c6ccccc6[nH]c5c32)C(=O)N(CCN2CCCC2)C4=O)CC(O)C1O (stereo not drawn)
NO

----------
- System: COLO 205 colon
- Assay: NCI-60 one-dose screen, 48 h (100 = growth as untreated, 0 = no growth, -100 = all killed)
- Condition Label: 10 µM unless noted
Compounds without any hit were thinned out: in the full panel of roughly 83,000, 20% have a hit.
Measured growth of individual entries
Field format: number, assumed %, no unit text.

O=C(C[C@]1(O)C(=O)Nc2ccccc21)c1cccc(C(F)(F)F)c1    89.5

Entry Ic1ccc(OCCCCn2ccnc2)cc1 has what growth?
29.3

State the recorded growth for this entry: Cn1cc(C(=O)c2nc(-c3c[nH]c4ccccc34)no2)c2cc(F)ccc21
34.7

Endpoint output: growth of CC(C)(Sc1cc(C(C)(C)C)c(O)c(C(C)(C)C)c1)Sc1cc(C(C)(C)C)c(OC(=O)CCCC(=O)O)c(C(C)(C)C)c1 . Value?
64.3

Using the record for CSc1nc2ccccc2cc1/C=[N+](\[O-])c1ccccc1 , report its growth.
103

// query growth value for entry COCCOc1cc2ncnc(N3CCN(c4cc(S(C)(=O)=O)c(C)cc4Cl)CC3)c2cc1OCCOC
97.1

----------
- System: OVCAR-4 ovarian
- Assay: NCI-60 one-dose screen, 48 h
- Condition Label: 10 µM unless noted
The panel holds about 83,000 compounds, 20% with a hit somewhere; the sample as a whole holds those more often. Calls of active or inactive are those of the source. How the source made its calls: active means growth percent below 10; inactive means the rest.
Reply using exactly one outcome from yes (active), no (inactive)

Answered cases to consult:
COC1=CC(c2ccc[nH]2)=N/C1=C\c1[nH]c(C)c(C(=O)OC(C)C)c1C    yes
CCOC(=O)c1c2c(n3cccc(F)c13)C(=O)c1ncccc1C2=O    no
O=C(O)c1ccc(-n2cc(/C=N/Nc3ccccc3)c(-c3ccc(F)cc3F)n2)cc1    no

Hello, I am checking results. What call was entered for Cc1ccc(/C=C2\COc3ccc(O)cc3C2=O)cc1 ?
no

Hey, what did the test say about CCC1=C[C@@H]2C[C@]3(C(=O)OC)c4[nH]c5ccccc5c4CC[N@+](CC(=O)Nc4cc5c(cc4OC)N(C)[C@H]4[C@@](O)(C(=O)OC)[C@H](OC(C)=O)[C@]6(CC)C=CCN7CC[C@]54[C@@H]76)(C2)[C@H]13 ?
no

Outcome logged for COc1ccc(NC(=O)c2sc3nc(C)c(C(=O)/C=C/c4ccccc4)cc3c2N)cc1 in this assay:
no

# fetch the recorded call for C[C@@H](CO)[C@@H]1CCC=C2CC[C@]3(C)[C@H](CC[C@@H]4[C@@]5(C)CCCNC(C)(C)[C@@H]5CC[C@]43C)[C@H]21 here
no

I would be grateful if you could indicate the recorded call for CCc1ncnc2c1ccn2C(C)c1ccc(OC)c(F)c1 (stereo not drawn) .
no

----------
- Test system: RPMI-8226 leukemia
- Assay: NCI-60 one-dose screen, 48 h
- Condition Label: 10 µM unless noted
Compounds without any hit were thinned out: in the full panel of roughly 83,000, 20% have a hit. Calls of active or inactive are those of the source. Rule for the calls: active = growth percent below 10; inactive = the rest.
Choose one outcome from this list and give only that: active, inactive

Field: example entries. Status: answers known.
O=C(O)c1ccc(-n2cc(/C=N/Nc3ccccc3)c(-c3ccc(F)cc3F)n2)cc1    inactive
COc1cc2c(cc1OC)C(C)N(S(N)(=O)=O)CC2 (stereo not given)    inactive
CCN(CC)c1ccc(\C=N/N=C(N)/C(N)=N\N=C/c2ccc(N(CC)CC)cc2)cc1    inactive
C=C1CC[C@@H]2[C@](C)(COC(C)=O)[C@H](OC(C)=O)CC[C@@]2(C)[C@@H]1CC(Nc1ccc(S(=O)(=O)Nc2ncccn2)cc1)C1=CCOC1=O (stereo not given in full)    active

Now turn to the next compound.
Could you kindly confirm the outcome this assay logged for Cc1ccc(Nn2c(SCC(=O)Nc3nc(-c4ccccc4)cs3)nc(C)c2C)cc1 ?
inactive

----------
- Tested on: HS 578T breast
- Assay: NCI-60 one-dose screen, 48 h
- Condition Label: 10 µM unless noted
- Method: Growth inhibition of the HS 578T human tumor cell line is measured as a screen for anti-cancer activity. Cells are grown in 96 well plates and exposed to the test compound for 48 hours. Compounds are tested at a single concentration, which is 10^-5 M for most compounds. The reported endpoint is percent growth (GI% or GIPRCNT), where numbers from 0 - 100% represent growth inhibition, and numbers from -100% - 0 represent cell death. For example, a value of 40 represents 60% growth inhibition. […]
The panel holds about 83,000 compounds, 20% with a hit somewhere; the sample as a whole holds those more often. Calls of active or inactive are those of the source. The calls were made as follows: active = growth percent below 10; inactive = the rest.
Valid outcomes are listed here; reply with one: active, inactive

Worked set:
CCC(C)N(CCNc1cc(OC)cc2cccnc12)CC(C)C (configuration not stated)    inactive
O=C1/C(=C/c2cn(-c3ccccc3)nc2-c2ccccc2)SC(=S)N1C1CCCCC1    inactive
Clc1ccc2c(NC3CCC(N4CCOCC4)CC3)ccnc2c1 (configuration not stated)    inactive
COc1cc2ncnc(Nc3ccc(F)c(Cl)c3)c2cc1OCC(=O)N1CCN(c2ccccc2)CC1    inactive

Hello, I am checking results. What call was entered for CC(O)(c1ccccc1)C(c1ccccc1)C1CCCCN1 (configuration not stated) ?
inactive

Write down the call the test reported for this molecule. Item: COc1ccc2cc1Oc1ccc(cc1)C[C@H]1c3c(cc4c(c3Oc3cc5c(cc3OC)CCN(C)[C@@H]5C2)OCO4)CCN1C
active

Recorded test call requested for Cc1ccc(Nn2c(SCC(=O)Nc3nc(-c4ccccc4)cs3)nc(C)c2C)cc1
inactive
